Parameter: bioavailability. Scope: all listed entries.
protocol-details: Mouse oral bioavailability
Format: in vivo
experimental-context: C57BL/6J mice, PO 10 mg/kg vs IV 1 mg/kg, plasma AUC, read-out: % F (Mouse), oral bioavailability

- compound: "CCn1nccc1C(=O)N[C@H](c1cn2nc(C[C@H]3C[C@@H](C(F)(F)F)CNC3=O)c(C3CCCOC3)nc2n1)[C@H]1CCCC(F)(F)C1 (single isomer, unassigned)"
  bioavailability (%): 45
- compound: "CCn1nccc1C(=O)N[C@H](c1cn2nc(C[C@H]3C[C@@H](C(F)(F)F)CNC3=O)c(C3CCOCC3)nc2n1)C1CCC(F)(F)CC1"
  bioavailability (%): 69
- compound: "Cc1nonc1C(=O)N[C@H](c1cn2nc(C[C@H]3C[C@@H](C(F)(F)F)CNC3=O)c(C3CCOCC3)nc2n1)C1CCC(F)(F)CC1"
  bioavailability (%): 91
- compound: "O=C(N[C@H](c1cn2nc(CC3C[C@@H](C(F)(F)F)CNC3=O)c(N3CCOCC3)nc2n1)C1CCC(F)(F)CC1)c1nonc1C1CC1 (stereo partly shown)"
  bioavailability (%): 87

---

system-under-test: IL-17A/F (Homo sapiens, UniProt Q16552+Q96PD4)
Sequence (Q16552 24-155): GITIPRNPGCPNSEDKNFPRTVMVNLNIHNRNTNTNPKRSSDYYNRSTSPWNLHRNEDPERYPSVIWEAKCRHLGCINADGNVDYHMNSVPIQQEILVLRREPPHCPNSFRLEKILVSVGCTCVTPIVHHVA
Sequence (Q96PD4 31-163): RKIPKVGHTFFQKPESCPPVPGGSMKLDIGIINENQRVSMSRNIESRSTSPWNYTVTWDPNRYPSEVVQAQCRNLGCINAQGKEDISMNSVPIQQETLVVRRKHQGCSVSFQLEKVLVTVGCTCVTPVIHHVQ
protocol-details: IL-17A/F HEK-Blue cell assay (SEAP reporter)
experimental-context: HEK-Blue IL-17A reporter cells, IL17A/F 5 ng/mL, 20 hours, SEAP read at A630; read-out: HEK-Blue IL17AF (IC50 for IL-17A/F inhibition)
pIC50: −log10 of the molar value.
# Lookup of reported pIC50 keyed by entry
property-name: pIC50

- molecule: "O=C(N[C@H](c1cn2nc(CC3C[C@@H](C(F)(F)F)CNC3=O)c(N3CCOCC3)nc2n1)C1CCC(F)(F)CC1)c1nonc1C1CC1 (some centres unmarked) [Compound 56]"
  property-name: "pIC50"
  test-result: "< 6.00"
- molecule: "CCn1nccc1C(=O)N[C@H](c1cn2nc(C[C@H]3C[C@@H](C(F)(F)F)CNC3=O)cnc2n1)[C@H]1CCCC(F)(F)C1"
  property-name: "pIC50"
  test-result: "< 6.00"
- molecule: "O=C(N[C@H](c1cn2nc(C[C@H]3C[C@@H](C(F)(F)F)CNC3=O)c(C3CCOC3)nc2n1)C1CCC(F)(F)CC1)c1nonc1C1CC1 (single isomer, unassigned) [Compound 135]"
  property-name: "pIC50"
  test-result: "< 6.00"
- molecule: "CCn1nccc1C(=O)N[C@H](c1cn2nc(C[C@@H]3CC(F)(F)CNC3=O)c(C3CCOCC3)nc2n1)C(C1CC1)C1CC1"
  property-name: "pIC50"
  test-result: "6.00 to 7.00"
- molecule: "CCn1nccc1C(=O)N[C@H](c1cn2nc(C[C@H]3C[C@@H](C(F)(F)F)CNC3=O)c(C3CCN(C)C3)nc2n1)C1CCC(F)(F)CC1 (single isomer, unassigned) [Compound 285]"
  property-name: "pIC50"
  test-result: "< 6.00"
- molecule: "CCn1nccc1C(=O)N[C@H](c1cn2nc(C[C@H]3C[C@@H](C(F)(F)F)CNC3=O)c(N3CCN4CCCC[C@@H]4C3)nc2n1)C1CCC(F)(F)CC1"
  property-name: "pIC50"
  test-result: "> 7.00"
- molecule: "CCn1nccc1C(=O)N[C@H](c1cn2nc(CC3C[C@@H](C(F)(F)F)CNC3=O)c(N3CCO[C@H](C)C3)nc2n1)[C@@H]1CCCC(F)(F)C1 (single isomer, unassigned) [Compound 122]"
  property-name: "pIC50"
  test-result: "> 7.00"
- molecule: "CCn1nccc1C(=O)N[C@H](c1cn2nc(CC3C[C@@H](C(F)(F)F)CNC3=O)c(N3CCOCC3)nc2n1)[C@H]1CCCC(F)(F)C1 (single isomer, unassigned) [Compound 90]"
  property-name: "pIC50"
  test-result: "6.00 to 7.00"
- molecule: "Cn1nccc1C(=O)N[C@H](c1cn2nc(C[C@H]3C[C@@H](C(F)(F)F)CNC3=O)cnc2n1)C1CCC(F)(F)CC1"
  property-name: "pIC50"
  test-result: "< 6.00"
- molecule: "CCn1nccc1C(=O)N[C@@H](CCC(C)(C)C(F)(F)F)c1cn2nc(C[C@H]3C[C@@H](C(F)(F)F)CNC3=O)c(C3CCOCC3)nc2n1 (single isomer, unassigned) [Compound 217]"
  property-name: "pIC50"
  test-result: "< 6.00"
- molecule: "Cc1nonc1C(=O)N[C@H](c1cn2nc(C[C@H]3C[C@@H](C(F)(F)F)CNC3=O)c(C3CCCOC3)nc2n1)C1CCC(F)(F)CC1 (single isomer, unassigned)"
  property-name: "pIC50"
  test-result: "< 6.00"
